Read-out: DNA damage-inducible transcript 3 (DDIT3), DDIT3 (gene 1649)
Assay: LTEA_HepaRG_DDIT3: Life Technologies and Expression Analysis (LTEA) Assay for DNA damage-inducible transcript 3 (DDIT3) using HepaRG (AID 2283488)
Conditions: mRNA level, 48 h; actives raise or lower the signal
Calls of active or inactive are those of the source. How the source made its calls: active means hit-call score of the fitted dose curve at least 0.9, where 1 is the maximum; inactive means score below 0.9.
The reply should be one of these categories: active, inactive

>  <Compound>
O=C(O)c1c(Cl)ccc2cc(Cl)cnc12

>  <Classification>
inactive

$$$$
>  <Compound>
Clc1nc(Cl)nc(Nc2ccccc2Cl)n1

>  <Classification>
inactive

$$$$
>  <Compound>
CCNC(=O)NC(=O)C(C#N)=NOC

>  <Classification>
active

$$$$
>  <Compound>
COP(=S)(OC)SCn1nnc2ccccc2c1=O

>  <Classification>
inactive

$$$$

Inquiry: How was O=C1C2CC=CCC2C(=O)N1SC(Cl)(Cl)Cl (stereo unspecified) classified in this test?
Reply text: inactive

Inquiry: How was CCN(CC)C(=O)C(C)Oc1cccc2ccccc12 (stereo unspecified) classified in this test?
Reply text: inactive

Inquiry: How was CCNP(=S)(OC)O/C(C)=C/C(=O)OC(C)C (stereo unspecified) classified in this test?
Reply text: inactive

Inquiry: How was Cn1c(-c2ccccc2)cc(-c2ccccc2)[n+]1C classified in this test?
Reply text: active

Inquiry: How was CC(C)NC(=O)N1CC(=O)N(c2cc(Cl)cc(Cl)c2)C1=O classified in this test?
Reply text: inactive

Inquiry: How was CCOP(=S)(OCC)Oc1nc(Cl)n(C(C)C)n1 classified in this test?
Reply text: inactive

Inquiry: How was CS(=O)(=O)c1ccc(C(=O)C2C(=O)CCCC2=O)c([N+](=O)[O-])c1 classified in this test?
Reply text: inactive

Inquiry: How was C=C(C)CN(CC)c1c([N+](=O)[O-])cc(C(F)(F)F)cc1[N+](=O)[O-] classified in this test?
Reply text: inactive

Inquiry: How was CCOP(=O)(OCC)Oc1nc(Cl)c(Cl)cc1Cl classified in this test?
Reply text: inactive

Inquiry: How was CC1(C)CON(Cc2ccccc2Cl)C1=O classified in this test?
Reply text: inactive

Inquiry: How was CC(C)N1C(=O)N(c2ccccc2)CSC1=NC(C)(C)C classified in this test?
Reply text: active

Inquiry: How was COP(=S)(OC)Oc1ccc([N+](=O)[O-])c(C)c1 classified in this test?
Reply text: inactive

Inquiry: How was CC(C)Oc1cccc(NC(=O)c2ccccc2C(F)(F)F)c1 classified in this test?
Reply text: inactive

Inquiry: How was CC1(C)C(C(=O)OC(C#N)c2cccc(Oc3ccccc3)c2)C1(C)C (stereo unspecified) classified in this test?
Reply text: inactive

Inquiry: How was Cc1c(COC(=O)[C@@H]2[C@H](/C=C(\Cl)C(F)(F)F)C2(C)C)cccc1-c1ccccc1 classified in this test?
Reply text: active

Inquiry: How was O=C(Nc1ccccc1-c1ccc(Cl)cc1)c1cccnc1Cl classified in this test?
Reply text: inactive

Inquiry: How was Clc1cccc(C(Cl)(Cl)Cl)n1 classified in this test?
Reply text: inactive

Inquiry: How was CCOc1nc(C(Cl)(Cl)Cl)ns1 classified in this test?
Reply text: active

Inquiry: How was O=P(O)(O)CCCl classified in this test?
Reply text: inactive

Inquiry: How was COc1cc(Cl)c(OC)cc1Cl classified in this test?
Reply text: inactive

Inquiry: How was N#CN=C1SCCN1Cc1ccc(Cl)nc1 classified in this test?
Reply text: inactive

Inquiry: How was CCCCOCN(C(=O)CCl)c1c(CC)cccc1CC classified in this test?
Reply text: inactive

====

Read-out: Transforming growth factor beta 1 (TGFb1), TGFB1 (gene 7040)
Assay: BSK_BE3C_TGFb1: BioMAP Diversity Plus: BE3C Assay for Transforming growth factor beta 1 (TGFb1) Biomarker Activity (AID 2283036)
Details: primary human bronchial epithelial cells; actives raise or lower the signal
The source made the active and inactive calls. Rule for the calls: active = hit-call score of the fitted dose curve at least 0.9, where 1 is the maximum; inactive = score below 0.9.
The reply should be one of these categories: y = active, n = inactive

Consider the worked cases shown below.
>  <Compound>
CN/C(=N\[N+](=O)[O-])NCc1cnc(Cl)s1

>  <Classification>
n

$$$$
>  <Compound>
CCOP(=S)(OCC)Oc1nc(Cl)n(C(C)C)n1

>  <Classification>
n

$$$$
>  <Compound>
Cc1cc(C)nc(Nc2ccccc2)n1

>  <Classification>
n

$$$$
>  <Compound>
C=C(C)CN(CC)c1c([N+](=O)[O-])cc(C(F)(F)F)cc1[N+](=O)[O-]

>  <Classification>
n

$$$$
>  <Compound>
O=C(Nc1ccccc1-c1ccc(Cl)cc1)c1cccnc1Cl

>  <Classification>
n

$$$$

Inquiry: How was CCNC(=O)NC(=O)C(C#N)=NOC classified in this test?
Reply text: n

Inquiry: How was CNC(=O)Oc1cccc2ccccc12 classified in this test?
Reply text: n

Inquiry: How was COC(=O)NC(=S)Nc1ccccc1NC(=S)NC(=O)OC classified in this test?
Reply text: n

Inquiry: How was COP(=S)(OC)Oc1ccc([N+](=O)[O-])c(C)c1 classified in this test?
Reply text: n

Inquiry: How was CNC(=O)N(C)c1nnc(C(C)(C)C)s1 classified in this test?
Reply text: n

Inquiry: How was CC(C)=CC1C(C(=O)OCc2coc(Cc3ccccc3)c2)C1(C)C (stereo not given) classified in this test?
Reply text: n

Inquiry: How was COC(=O)c1c(C(F)F)nc(C(F)(F)F)c(C2=NCCS2)c1CC(C)C classified in this test?
Reply text: n

Inquiry: How was Nc1c(Cl)c(Cl)nc(C(=O)O)c1Cl classified in this test?
Reply text: n

Inquiry: How was Cn1c(-c2ccccc2)cc(-c2ccccc2)[n+]1C classified in this test?
Reply text: n

Inquiry: How was CC(C)NC(=O)N1CC(=O)N(c2cc(Cl)cc(Cl)c2)C1=O classified in this test?
Reply text: n

Inquiry: How was OC(c1ccc(Cl)cc1)(c1ccc(Cl)cc1)C(Cl)(Cl)Cl classified in this test?
Reply text: y

Inquiry: How was COc1ccc(-c2ccccc2)cc1NNC(=O)OC(C)C classified in this test?
Reply text: n

Inquiry: How was CS(=O)(=O)c1ccc(C(=O)C2C(=O)CCCC2=O)c([N+](=O)[O-])c1 classified in this test?
Reply text: n

====

Molecular target: human CYP2B6, CYP2B6 (gene 1555)
Assay: NVS_ADME_hCYP2B6: NovaScreen (NVS) CYP450-related Enzyme Activity (ADME) Assay for human CYP2B6 (AID 2283101)
Description: NVS_ADME_hCYP2B6 is a biochemical, single-readout assay that uses extracted gene-proteins in a cell-free assay. Measurements were taken 1 hour after chemical dosing in a 96-well plate.NVS_ADME_hCYP2B6 is one of one assay component(s) measured or calculated from the NVS_ADME_hCYP2B6 assay. […] This assay endpoint, NVS_ADME_hCYP2B6, was analyzed in the positive analysis fitting direction relative to Acetonitrile as the negative control and baseline of activity. […]
Records with an inconclusive call do not appear. Activity calls are given as the source filed them. Rule for the calls: active = hit-call score of the fitted dose curve at least 0.9, where 1 is the maximum; inconclusive = response in the unintended direction; inactive = score below 0.9.
Measured metric: AC50

See these solved cases before continuing.
>  <Molecule>
CCCCC(O)(Cn1cncn1)c1ccc(Cl)cc1Cl (centres undefined)

>  <AC50>
1.07 µM (active)

$$$$
>  <Molecule>
CCCCC(C#N)(Cn1cncn1)c1ccc(Cl)cc1 (centres undefined)

>  <AC50>
6.49 µM (active)

$$$$
>  <Molecule>
CCCCOCN(C(=O)CCl)c1c(CC)cccc1CC

>  <AC50>
8.94 µM (active)

$$$$
>  <Molecule>
CCOP(=S)(OCC)Oc1nc(Cl)n(C(C)C)n1

>  <AC50>
1 µM (active)

$$$$
>  <Molecule>
COP(=S)(OC)SCn1nnc2ccccc2c1=O

>  <AC50>
0.302 µM (active)

$$$$
>  <Molecule>
CCN(CC)C(=O)C(C)Oc1cccc2ccccc12 (centres undefined)

>  <AC50>
5.79 µM (active)

$$$$
>  <Molecule>
COP(=S)(OC)Oc1ccc([N+](=O)[O-])c(C)c1

>  <AC50>
1.3 µM (active)

$$$$
>  <Molecule>
CCN(CC)c1nc(C)cc(OP(=S)(OC)OC)n1

>  <AC50>
4.4 µM (active)

$$$$

Continue with the next molecule.
Inquiry: Check the records and state AC50 for COC(=O)c1c(C(F)F)nc(C(F)(F)F)c(C2=NCCS2)c1CC(C)C
Reply text: 5.93 µM (active)

====

Molecular target: Retinoic acid receptor alpha (Homo sapiens) (UniProt P10276)
Sequence (P10276 whole entry, looked up): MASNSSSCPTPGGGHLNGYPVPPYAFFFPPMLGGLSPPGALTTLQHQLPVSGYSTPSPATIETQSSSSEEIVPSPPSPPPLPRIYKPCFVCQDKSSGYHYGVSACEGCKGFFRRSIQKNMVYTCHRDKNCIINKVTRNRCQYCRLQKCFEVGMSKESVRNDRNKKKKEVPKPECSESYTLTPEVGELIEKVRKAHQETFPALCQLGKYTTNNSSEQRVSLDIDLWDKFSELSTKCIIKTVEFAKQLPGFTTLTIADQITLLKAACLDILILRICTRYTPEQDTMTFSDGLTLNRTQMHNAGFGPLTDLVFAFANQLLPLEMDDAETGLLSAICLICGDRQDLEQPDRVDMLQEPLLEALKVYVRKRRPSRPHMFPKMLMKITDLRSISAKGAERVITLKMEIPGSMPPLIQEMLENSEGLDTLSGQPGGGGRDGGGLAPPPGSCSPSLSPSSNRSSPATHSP
Experiment: ATG_DR5_RAR_CIS: Attagene CIS-FACTORIAL HepG2 Assay for human Retinoic Acid Receptor Alpha (RARE), DR5 submotif (AID 2282934)
Conditions: HepG2 Attagene cis-factorial RARE DR5 reporter, mRNA; actives raise or lower the signal
Activity calls are given as the source filed them. Rule for the calls: active = hit-call score of the fitted dose curve at least 0.9, where 1 is the maximum; inactive = score below 0.9.
The reply should be one of these categories: Y = active, N = inactive

Consider the worked cases shown below.
>  <Compound>
COC(=O)N(C(=O)N1CO[C@@]2(C(=O)OC)Cc3cc(Cl)ccc3C2=N1)c1ccc(OC(F)(F)F)cc1

>  <Classification>
N

$$$$
>  <Compound>
Cc1ccc(N=CN(C)C=Nc2ccc(C)cc2C)c(C)c1

>  <Classification>
N

$$$$
>  <Compound>
CCCCC(C#N)(Cn1cncn1)c1ccc(Cl)cc1 (centres undefined)

>  <Classification>
N

$$$$
>  <Compound>
COP(=S)(OC)SCn1nnc2ccccc2c1=O

>  <Classification>
N

$$$$
>  <Compound>
CCOC(=O)C(C)OC(=O)c1cc(Oc2ccc(C(F)(F)F)cc2Cl)ccc1[N+](=O)[O-] (centres undefined)

>  <Classification>
N

$$$$

Inquiry: How was COC(=O)c1c(C(F)F)nc(C(F)(F)F)c(C2=NCCS2)c1CC(C)C classified in this test?
Reply text: N

Inquiry: How was CCSC(=O)N1CCCCCC1 classified in this test?
Reply text: N

Inquiry: How was CN=C=S classified in this test?
Reply text: N

Inquiry: How was COP(=O)(OC)O/C(C)=C/C(=O)N(C)C classified in this test?
Reply text: N

Inquiry: How was CCOc1nc(C(Cl)(Cl)Cl)ns1 classified in this test?
Reply text: N

Inquiry: How was Cc1cnc(C2=NC(C)(C(C)C)C(=O)N2)c(C(=O)O)c1 (centres undefined) classified in this test?
Reply text: Y

Inquiry: How was CC(C)N1C(=O)c2ccccc2NS1(=O)=O classified in this test?
Reply text: N

Inquiry: How was CC(C)Oc1cccc(NC(=O)c2ccccc2C(F)(F)F)c1 classified in this test?
Reply text: Y
